- Test system: MCF7
- Assay name: cells
- Assay context: Homo sapiens, MCF7, 24 h
- Description: Cytotoxicity against human MCF7 cells assessed as cell growth inhibition after 24 hrs by XTT assay
Measurement label: log10 IC50 (log10 of the value in µM)
Values reflect log10 of reported IC50 (µM).

Worked examples, 3 compounds total:
{"columns": ["Compound", "Value measured"],
 "data": [
  ["CCCCCCCCCCCCCCNCCCNCC(O)COC[C@H]1O[C@@H]2OC(C)(C)O[C@@H]2[C@H]2OC(C)(C)O[C@H]21 (mixture of isomers)", 2.29],
  ["CCCCCCCCCCCCNCCCNCC(O)COC[C@H]1O[C@@H]2OC(C)(C)O[C@@H]2[C@H]2OC(C)(C)O[C@H]21 (mixture of isomers)", 1.44],
  ["CCCCCCCCCCCCCCN(CCO)CC(O)COC[C@H]1O[C@@H]2OC(C)(C)O[C@@H]2[C@H]2OC(C)(C)O[C@H]21 (mixture of isomers)", 1.49]
]}

Prompt: Dear colleague, I am looking for the recorded log10 IC50 of the following compound: CCCCCCCCCCCCNCCNCC(O)COC[C@H]1O[C@@H]2OC(C)(C)O[C@@H]2[C@H]2OC(C)(C)O[C@H]21 (mixture of isomers)
Response: 1.08

Prompt: Then CCCCCCCCCCCCCCNCCNCC(O)COC[C@H]1O[C@@H]2OC(C)(C)O[C@@H]2[C@H]2OC(C)(C)O[C@H]21 (mixture of isomers) ?
Response: 1.59

Prompt: Then CCCCCCCCCCNCCCNCC(O)COC[C@H]1O[C@@H]2OC(C)(C)O[C@@H]2[C@H]2OC(C)(C)O[C@H]21 (mixture of isomers) ?
Response: 1.51
